test: qHTS Assay for Lipid Storage Modulators in Drosophila S3 Cells; details: BODIPY lipid droplet fluorescence, 18-24 h, cells fed with added oleic acid; series mostly up to 46.1 µM
The whole screen tested about 320,000 compounds, of which about 2,100 (0.66%) were called active. Inconclusive results (about 53%) are left out. The call rests on the fitted dose curve; in most records, active means well fitted inhibition curve with a large enough effect in the signal ratio, with a control signal flat (not every such curve was filed as active); inconclusive means small, poorly fitted or top-dose-only effect, or effect the other way, or a change in a side signal; inactive means flat fitted curve, though single readings scatter; the % refers to the signal ratio. The sample holds actives, similar compounds and a random draw of the others, so the mix is not that of the screen.
Could you please pick one outcome from this set? active, inactive

Examples from the recorded data:
CCc1nc2ccccc2c(C(=O)OCC(=O)NCc2ccco2)c1C ... inactive
CC(C)c1ccc(/C=C2\SC(=S)N(CCC(=O)N3CCCCC3CCO)C2=O)cc1 (configuration not stated) ... inactive
CCOc1ccc(NC(=O)CN(C)C(=O)COc2cccc3c2OC(C)(C)C3)cc1OCC ... inactive
O=[N+]([O-])c1ccccc1/C=N\N1CCN(c2ccccc2)CC1 ... inactive
O=C(O)CCCCCN1C(=O)/C(=C\c2ccncc2)SC1=S ... active

Hi team, can someone confirm the assay call for CC(=O)CSc1cc(-c2ccccc2)nc2ncnn12 ?
inactive

Which outcome was entered for the compound CCOC(=O)C(N)CSC1CC(=O)N(c2ccc(OCC)cc2)C1=O (configuration not stated) in this test?
inactive

Outcome logged for O=C(O)CCCN1C(=O)/C(=C/c2ccncc2)SC1=S in this assay:
inactive

// param item: CCC(C)(C)n1nnnc1C(c1cc2cc(C)cc(C)c2[nH]c1=O)N1CCCC1 (configuration not stated) ; yields the recorded call
inactive

// outcome(item) with item = Cc1cc2oc(=O)sc2cc1NS(=O)(=O)c1ccccc1
active
